measured-target: T1, human C5aR (CD88) (human, UniProt P21730 1-350)
T1 sequence (looked up): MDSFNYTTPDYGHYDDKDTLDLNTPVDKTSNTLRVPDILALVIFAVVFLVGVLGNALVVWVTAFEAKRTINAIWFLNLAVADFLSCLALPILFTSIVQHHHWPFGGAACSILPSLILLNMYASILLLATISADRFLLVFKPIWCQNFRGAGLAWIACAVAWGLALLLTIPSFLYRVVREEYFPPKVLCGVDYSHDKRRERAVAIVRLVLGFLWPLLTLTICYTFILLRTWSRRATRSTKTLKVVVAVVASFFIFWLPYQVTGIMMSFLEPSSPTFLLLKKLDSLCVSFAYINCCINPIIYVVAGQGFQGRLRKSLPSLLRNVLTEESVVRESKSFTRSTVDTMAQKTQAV
assay-name: cell-based or functional assay
Positions of bridges follow the written chain, without caps; N, C: chain ends. Non-standard residues stand in square brackets, D forms with d. No end group written: not given here. 2Thi = N[C@@H](Cc1cccs1)C(=O)O; dCha = N[C@H](CC1CCCCC1)C(=O)O; Nle = CCCC[C@H](N)C(=O)O; Orn = NCCC[C@H](N)C(=O)O
measured-attribute: IC50 activity group, enzyme release assay

binder | observed-result
Ac-F[Orn]S[dCha]WF-OH (SMILES CC(=O)N[C@@H](Cc1ccccc1)C(=O)N[C@@H](CCCN)C(=O)N[C@@H](CO)C(=O)N[C@H](CC1CCCCC1)C(=O)N[C@@H](Cc1c[nH]c2ccccc12)C(=O)N[C@@H](Cc1ccccc1)C(=O)O) [Ac-Phe-Orn-Ser-cha-Trp-Phe-OH] | ≤ 2000 nM
Ac-F[Orn]P[dCha]W[2Thi] (lactam (positions not given here); not fully specified (bridges); printed as Ac-Phe-[Orn-Pro-cha-Trp-Thi]) [Ac-Phe-[Orn-Pro-cha-Trp-Thi]] | ≤ 50 nM
H-F[Orn]P[dCha]W[Nle] (lactam 2-C) [H-Phe-[Orn-Pro-cha-Trp-Nle]] | ≤ 200 nM
Ac-F[Orn]P[dHch]WF-OH [Ac-Phe-Orn-Pro-hch-Trp-Phe-OH] | ≤ 200 nM

# next binder below
State its IC50 activity group, enzyme release assay for this binder: Ac-F[Orn]P[dCha]WA (lactam (positions not given here); not fully specified (bridges); printed as Ac-Phe-[Orn-Pro-cha-Trp-Ala]) [Ac-Phe-[Orn-Pro-cha-Trp-Ala]] > 2000 nM

Values compiled from patent US7727960B2.
